biological target: D(1A) dopamine receptor (Homo sapiens); test: HTS Assay for Allosteric Agonists of the Human D1 Dopamine Receptor: Primary Screen for Agonists (AID 488981); conditions: Inducible HEK293 T-REx D1 cells, calcium-flux fluorescence, 180 s kinetic; series mostly up to 41.8 µM
Records with an inconclusive call do not appear. Calls of active or inactive are those of the source. The call rests on the fitted dose curve; in most records, active means well fitted activation curve with a large enough effect; inconclusive means small, poorly fitted or top-dose-only effect; inactive means flat fitted curve, though single readings scatter.
Recorded metric: outcome

Solved entries:
>>> value_reported("CCN(CC)C(C)CN1c2ccccc2Sc2ccccc21 (stereo unspecified)")
"inactive"
>>> value_reported("CC(=O)OCC(=O)[C@@]1(O)CC[C@H]2[C@@H]3CCC4=CC(=O)CC[C@]4(C)[C@H]3C(=O)C[C@@]21C")
"inactive"
>>> value_reported("C=Cc1c(C)c2cc3[nH]c(cc4nc(cc5nc(cc1[nH]2)C(C)=C5CCC(=O)O)C(CCC(=O)O)=C4C)c(C)c3C=C")
"inactive"
>>> value_reported("CSc1ccc2c(c1)N(CCC1CCCCN1C)c1ccccc1S2 (stereo unspecified)")
"inactive"
>>> value_reported("CN(C)CCOC(C)(c1ccccc1)c1ccccn1 (stereo unspecified)")
"inactive"

Which outcome is reported for this compound? CC(CN(C)C)CN1c2ccccc2CCc2ccccc21 (stereo unspecified) inactive

Recorded values, source PubChem BioAssay (NCATS).
